# Test system: RXF 393 renal
# TEST_NAME: NCI tumour cell line growth inhibition, 48 h
Where a SMILES comes first, the peptide text is derived from it. The star is where a group is joined. Palmitoyl = CCCCCCCCCCCCCCCC(=O)*

- COMPOUND: "Cc1nc(C(=O)O)c2ccccc2n1"
  TGI: "> 100 µM"
- COMPOUND: "COC(=O)[C@@]1(C(C)CC(=O)O)CCCCC1=O (stereo partly specified)"
  TGI: "> 100 µM"
- COMPOUND: "NC(=O)C(=O)C1CCC2=C(Sc3ccccc3N2)C1=O (stereo unspecified)"
  TGI: "> 100 µM"
- COMPOUND: "CCCCCO/N=C\\c1c2c(O)c3c(O)c(C)c4c(c3c1O)C(=O)C(C)(O/C=C\\C(OC)C(C)C(OC(C)=O)C(C)C(O)C(C)C(O)C(C)/C=C\\C=C(\\C)C(=O)N2)O4 (stereo unspecified)"
  TGI: "3.1 µM"
- COMPOUND: "CCC1(O)C(=O)OCc2c1cc1n(c2=O)Cc2cc3c(NC(=O)CN)cccc3nc2-1 (stereo unspecified)"
  TGI: "3.91 µM"
- COMPOUND: "O=C(/C=C/c1ccccc1)Oc1ccc(C(=O)/C=C/c2ccc(Cl)cc2)cc1"
  TGI: "> 100 µM"
- COMPOUND: "c1cnc2c(c1)ccc1cccnc12"
  TGI: "> 100 µM"
- COMPOUND: "CC(C)=CCN1CC(C)C(=O)Nc2ccccc21 (stereo unspecified)"
  TGI: "> 100 µM"
- COMPOUND: "Cc1cc(C#Cc2ccc(C(C)(C)C)cc2)ccc1-n1c(/C=C/c2ccc(O)cc2O)nc2ccccc2c1=O"
  TGI: "4.46 µM"
- COMPOUND: "Cn1c(-c2ccccc2)cc(-c2cccs2)c1-c1cccs1"
  TGI: "> 100 µM"
- COMPOUND: "Cc1ccc(C)c(N2C(=O)C(=O)C(c3nc4ccccc4s3)/C(=N/NC(=O)NN)C2=O)c1 (stereo unspecified)"
  TGI: "> 100 µM"
- COMPOUND: "O=c1c2cc(S(=O)(=O)O)ccc2nc(COc2ccc(Oc3ccc(Cl)cc3Cl)cc2)n1-c1ccc(Oc2ccc(Cl)cc2)cc1Cl"
  TGI: "17.9 µM"
- COMPOUND: "Oc1cccc2ccc(N/N=C/c3cc(CN4CCOCC4)c(O)c4ncccc34)nc12"
  TGI: "1.66 µM"
- COMPOUND: "CCCCCCCCCCCCCCCC(=O)N1CCCC1C(=O)NCC(=O)NC(Cc1ccccc1)C(=O)NC(C)C(=O)NC(CO)C(=O)NC(Cc1ccc(O)cc1)C(=O)NC(CCCCN)C(=O)NC(CC(C)C)C(=O)NC(CCCN=C(N)N)C(=O)N1CCCC1C(=O)NCC(N)=O (stereo unspecified) (Palmitoyl-PGFASYKLRPG-NH2; configuration not given here)"
  TGI: "53.5 µM"
- COMPOUND: "O=C(/C=C/c1cccc(O)c1)c1cccc(-n2cc(-c3ccccc3)[nH]c2=O)c1"
  TGI: "3.51 µM"
- COMPOUND: "CC(C)(O)CNc1nc(Nc2ccnc(C(F)(F)F)c2)nc(-c2cccc(C(F)(F)F)n2)n1"
  TGI: "48.4 µM"
- COMPOUND: "O=C(N/N=C/c1ccc([N+](=O)[O-])cc1)Nc1ccc(C(=O)O)cc1"
  TGI: "> 100 µM"
- COMPOUND: "c1ccc(-c2nc(N3CCNCC3)c3oc(-c4ccccc4)nc3n2)cc1"
  TGI: "3.07 µM"
- COMPOUND: "N#Cc1nc(-c2ccco2)oc1N"
  TGI: "> 10 µM"
- COMPOUND: "CON(C)c1nc(N(C)OC)nc(N(C)OC)n1"
  TGI: "> 10 µM"
- COMPOUND: "O=c1[nH]c(=S)nc2nc3c4ccc[nH]c4c4ccccc4c3nc12"
  TGI: "> 100 µM"
- COMPOUND: "CC1(C)CC(=O)C(/C(=N/NC(=S)NN)C(=O)Nc2nc3ccc([N+](=O)[O-])cc3s2)C(=O)C1"
  TGI: "> 100 µM"
- COMPOUND: "COC(=O)c1cncc(/C=C/c2c(C)cc(O)cc2C)c1"
  TGI: "16.7 µM"
- COMPOUND: "Nc1nc(O)c2ncn([C@H]3CC[C@@H](CO)O3)c2n1"
  TGI: "> 100 µM"
- COMPOUND: "COc1ncnc(NS(=O)(=O)c2ccc(N=C3C(=O)N(CN4CCN(c5c(F)cc6c(=O)c(C(=O)O)cn(C7CC7)c6c5OC)CC4C)c4ccc(Br)cc43)cc2)c1OC (stereo unspecified)"
  TGI: "33 µM"
- COMPOUND: "C[N+](C)(C)c1ncnc2c1ncn2C1CC(O)C(CO)O1 (stereo unspecified)"
  TGI: "> 100 µM"
- COMPOUND: "CN1C(c2ccccc2)CC(=O)C(N)C1c1ccccc1 (stereo unspecified)"
  TGI: "> 31.6 µM"
- COMPOUND: "Cc1cn(CCCCC2=NCCCN2)c(=O)[nH]c1=O"
  TGI: "> 32.6 µM"
- COMPOUND: "Cc1ccc(-c2nc(N/N=C/C=C/c3ccccc3)c3ccccc3n2)cc1"
  TGI: "99.6 µM"
- COMPOUND: "CCOC(=O)NNC(=O)NCc1cccc(CNC(=O)NNC(=O)OCC)c1"
  TGI: "> 100 µM"
- COMPOUND: "CC1=C(CC(=O)c2cccc([N+](=O)[O-])c2)C(=O)c2ccccc2C1=O"
  TGI: "16.6 µM"
- COMPOUND: "CCOC(=O)c1sc2nc(SC)nc3c2c1NCN3c1ccc2c(c1)OCO2"
  TGI: "10.3 µM"
- COMPOUND: "O=[N+]([O-])c1ccc(OC2CC3C4C=CC3C2C4)c([N+](=O)[O-])c1 (stereo unspecified)"
  TGI: "> 100 µM"
- COMPOUND: "CC12C=CC(=O)C=C1CCC1C3CCC(O)(C(=O)CO)C3(C)CC(O)C12F (stereo unspecified)"
  TGI: "> 100 µM"
- COMPOUND: "CC(=O)Oc1ccc(/C=C/C(=O)OCCCOC(=O)/C=C/c2ccc(OC(C)=O)c(OC(C)=O)c2)cc1OC(C)=O"
  TGI: "> 100 µM"
- COMPOUND: "NS(=O)(=O)c1ccc(-c2cc3ccncc3cc2OCc2ccccc2)cc1"
  TGI: "> 25 µM"
